- method: Stability to Phase I metabolism in rat S9 liver fraction
- Assay type: in vitro ADME
- measurement setup: after 90 min, 37° C.
observation type: residual percentage in rat S9 fraction (%)

[[record]]
molecule = "O=C(NO)c1cc(F)c(Cc2noc(-c3cncc(N4CC5(COC5)C4)c3)n2)c(F)c1"
quantitative_readout = 34

[[record]]
molecule = "O=C(NO)c1ccc(Sc2nnc(-c3ccc(F)cc3)[nH]2)cc1"
quantitative_readout = 74

[[record]]
molecule = "COc1ccc(-c2nc(Cc3ccc(C(=O)NO)cc3)no2)cc1OC"
quantitative_readout = 57

[[record]]
molecule = "O=C(NO)c1cc(F)c(Cc2nnc(-c3ccccc3)s2)c(F)c1"
quantitative_readout = 6

[[record]]
molecule = "Cc1ccc(-c2cc(-c3nnc(Sc4ccc(C(=O)NO)cc4)n3C)c3ccccc3n2)cc1"
quantitative_readout = 44


1. O=C(NO)c1ccc(Cn2nnc(-c3ccccn3)n2)cc1
2. O=C(NO)c1ccc(Cn2nnc(-c3csc4ccccc34)n2)cc1
// compare measured residual percentage in rat S9 fraction between 1 and 2 ; output the lower one Please reply using the label of the selected record. 2
(2: 16%, 1: 97%)

P. O=C(NO)c1cc(F)c(Sc2nnc(N3CCCC3)n2Cc2ccco2)c(F)c1
Q. O=C(NO)c1cc(F)c(Cn2nnc(-c3ccc4ccccc4n3)n2)c(F)c1
R. CSc1sc(-c2nnn(Cc3ccc(C(=O)NO)cc3)n2)c2c1C(=O)CC(C)(C)C2
Put the entries in order of residual percentage in rat S9 fraction, starting with the largest number. Sort and list the labels as requested. P, Q, R

I. O=C(NO)c1ccc(Cn2nnc(-c3ccc(Cl)cc3Cl)n2)cc1
II. O=C(NO)c1ccc(Cn2nnc(-c3ccc(C(F)(F)F)cc3)n2)cc1
III. COc1ccc(Cc2nnc(Cc3ccc(C(=O)NO)cc3)o2)cc1OC
IV. O=C(NO)c1ccc(Cn2nnc(-c3ccccc3F)n2)cc1
Task field, ranking: reported residual percentage in rat S9 fraction, descending order. Output the labels ranked as instructed. III, II, IV, I
(III: 69%, II: 8%, IV: 2%, I: 1%)

A. Cn1c(Sc2c(F)cc(C(=O)NO)cc2F)nnc1C1(c2ccccc2)CCC1
B. Cn1c(Sc2c(F)cc(C(=O)NO)cc2F)nnc1C(c1ccccc1)c1ccccc1
C. CN(C)c1cccc(-c2nnc(Sc3c(F)cc(C(=O)NO)cc3F)n2C)c1
D. Cc1nc2ccc(F)cc2cc1-c1nnc(Sc2c(F)cc(C(=O)NO)cc2F)n1C
E. Cn1c(Sc2c(F)cc(C(=O)NO)cc2F)nnc1-c1cccc2ccccc12
Hey, quick one: sort these by residual percentage in rat S9 fraction, low to high? The response must list the labels following the requested ordering. E, A, C, D, B

A. O=C(NO)c1cc(F)c(Sc2nnc(-c3cccnc3)n2Cc2ccco2)c(F)c1
B. Nc1ccc(-c2nnn(Cc3ccc(C(=O)NO)cc3)n2)cc1
// compare: A vs B , metric residual percentage in rat S9 fraction, want the smaller To answer, give the label that identifies your chosen option. B

I. CCN(CC)Cc1ccc(-c2nnc(Sc3c(F)cc(C(=O)NO)cc3F)n2C)o1
II. Cn1c(Sc2c(F)cc(C(=O)NO)cc2F)nnc1C(C)(C)c1cccnc1
III. O=C(NO)c1cc(F)c(Sc2nnc(CN3CCCC3)n2Cc2ccccc2)c(F)c1
IV. O=C(NO)c1cc(F)c(Cn2nnnc2-c2nccc3ccccc23)c(F)c1
Order each entry by recorded residual percentage in rat S9 fraction, climbing from the minimum. Please list each label once, in the requested order. II, IV, III, I

A. Cc1cc(-c2nnc(Sc3ccc(C(=O)NO)cc3)n2C)nn1C
B. O=C(NO)c1ccc(Sc2nnc(-c3c[nH]c4ccccc34)n2Cc2ccco2)cc1
Could you kindly indicate whether A or B has the higher residual percentage in rat S9 fraction value? Bench note: the answer is the label of the chosen record. A

I. Cn1c(Sc2ccc(C(=O)NO)cc2)nnc1C1COc2ccccc2O1 (stereo not shown)
II. Cn1c(Sc2c(F)cc(C(=O)NO)cc2F)nnc1C(C)(C)c1ccccc1
Could you tell me which of these two has the smaller residual percentage in rat S9 fraction figure? First: I Second: II Answer format: the label of the selected item. II

* * *

- target or test system: recombinant human HDAC6 (Homo sapiens)
- method: Enzymatic screening on recombinant human HDAC6
- Type: biochemical
- measurement setup: Table 3; read-out: HDAC6 IC50
observation type: IC50 (nM)

Completed entries (count: 8):
[[record]]
compound_structure = "O=C(NO)c1cc(F)c(Cn2nnc(-c3scc4c3OCCO4)n2)c(F)c1"
observation_type = "IC50"
quantitative_readout = 8

[[record]]
compound_structure = "Nn1c(Sc2ccc(C(=O)NO)cc2)nnc1-c1ccc(OC(F)F)cc1"
observation_type = "IC50"
quantitative_readout = 10

[[record]]
compound_structure = "CN(C)c1cccc(-c2nnc(Sc3c(F)cc(C(=O)NO)cc3F)n2C)c1"
observation_type = "IC50"
quantitative_readout = 16

[[record]]
compound_structure = "O=C(NO)c1cc(F)c(Cn2nnnc2-c2cccs2)c(F)c1"
observation_type = "IC50"
quantitative_readout = 19

[[record]]
compound_structure = "O=C(NO)c1ccc(Cc2nnc(-c3ccc(F)cc3F)o2)cc1"
observation_type = "IC50"
quantitative_readout = 6

[[record]]
compound_structure = "COc1ccc(C(=O)N[C@@H](Cc2cscn2)c2nc(Cc3ccc(C(=O)NO)cc3)no2)cc1OC"
observation_type = "IC50"
quantitative_readout = 81

[[record]]
compound_structure = "Cn1c(Sc2c(F)cc(C(=O)NO)cc2F)nnc1-c1cccs1"
observation_type = "IC50"
quantitative_readout = 9

[[record]]
compound_structure = "Cn1c(Sc2c(F)cc(C(=O)NO)cc2F)nnc1C(c1ccccc1)c1ccccc1"
observation_type = "IC50"
quantitative_readout = 61


I. O=C(NO)c1ccc(Cn2nnc(-c3ccc(C(F)(F)F)cc3)n2)cc1
II. O=C(NO)c1cc(F)c(Cn2nnnc2-c2ccccn2)c(F)c1
I'm curious whether I or II has the smaller IC50 number. Which is it? Answer with the label corresponding to your selection. II
(II: 4 nM, I: 11 nM)

A. O=C(NO)c1ccc(Cn2nnc(-c3cccs3)n2)cc1
B. O=C(NO)c1cc(F)c(Cn2nnc(-c3cccs3)n2)c(F)c1
Given the listed items, does A or B have the lesser reported IC50? Indicate which entry you chose by stating its label. A

A. Cc1cc(-c2nnc(Sc3ccc(C(=O)NO)cc3)n2C)nn1C
B. O=C(NO)c1ccc(Cn2nnc(-c3ccccc3F)n2)cc1
C. CN(C)c1cccc(-c2nnc(Sc3ccc(C(=O)NO)cc3)n2C)c1
D. CCN(CC)S(=O)(=O)c1cccc(-c2nnc(Sc3ccc(C(=O)NO)cc3)n2N)c1
Ordering: ascending IC50. Please list the labels according to the requested order. B, A, D, C

P. CN(C)S(=O)(=O)c1cccc(-c2nnn(Cc3ccc(C(=O)NO)cc3)n2)c1
Q. Cn1c(Sc2c(F)cc(C(=O)NO)cc2F)nnc1-c1cccc2ccccc12
Which value of IC50 is greater, the one for P or the one for Q ? Provide the label of your selected option as the answer. Q
(Q: 16 nM, P: 7 nM)

* * *

- target or test system: recombinant human HDAC3 (Homo sapiens, UniProt O15379)
- Sequence (O15379 whole entry): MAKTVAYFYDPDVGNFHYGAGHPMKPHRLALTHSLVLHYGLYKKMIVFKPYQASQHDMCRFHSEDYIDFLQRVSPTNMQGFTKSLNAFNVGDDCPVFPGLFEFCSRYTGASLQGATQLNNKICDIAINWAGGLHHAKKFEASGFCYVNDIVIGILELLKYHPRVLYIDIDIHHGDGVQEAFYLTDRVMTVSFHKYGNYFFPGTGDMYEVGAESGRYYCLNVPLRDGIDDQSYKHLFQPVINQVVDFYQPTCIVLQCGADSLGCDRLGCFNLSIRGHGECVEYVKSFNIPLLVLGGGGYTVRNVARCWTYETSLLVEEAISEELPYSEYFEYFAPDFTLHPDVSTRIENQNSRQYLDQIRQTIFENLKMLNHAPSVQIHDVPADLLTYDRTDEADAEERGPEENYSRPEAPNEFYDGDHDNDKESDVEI
- Sequence (Q9Y618 395-489 partner limits assumed): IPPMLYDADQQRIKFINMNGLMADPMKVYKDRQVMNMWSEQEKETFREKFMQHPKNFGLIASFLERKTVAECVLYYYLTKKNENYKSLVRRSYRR
- method: Enzymatic screening on recombinant human HDAC3
- measurement setup: Table 3
- Experimental: Enzymatic activity on recombinant human HDAC6 and HDAC3 was evaluated (Table 2) for each synthesized compound. After a period of incubation at 30° C. (incubation times vary for different isoforms and are shown in table 1) 25 μL of solution containing the substrate were added. […]
pIC50: −log10 of the molar value.
observation type: pIC50

Answered cases to consult:
[[record]]
compound_structure = "CN(C)S(=O)(=O)c1cccc(-c2nnn(Cc3ccc(C(=O)NO)cc3)n2)c1"
observation_type = "pIC50"
quantitative_readout = 6.35

[[record]]
compound_structure = "O=C(NO)c1cc(F)c(Cn2nnc(-c3ccco3)n2)c(F)c1"
observation_type = "pIC50"
quantitative_readout = 5.58


A. Cc1cc(-c2nnc(Sc3ccc(C(=O)NO)cc3)n2C)nn1C
B. O=C(NO)c1ccc(Cn2nnc(-c3ccc(C(F)(F)F)cc3)n2)cc1
C. CN(C)c1cccc(-c2nnc(Sc3c(F)cc(C(=O)NO)cc3F)n2C)c1
Order the records, beginning with the lowest pIC50 and ending with the highest. Please reply with the labels ordered as requested. Many thanks. C, B, A
(C: 5.73, B: 6.25, A: 6.47)

* * *

- target or test system: recombinant human HDAC6 (Homo sapiens)
- Sequence (Q9UBN7 1-1215): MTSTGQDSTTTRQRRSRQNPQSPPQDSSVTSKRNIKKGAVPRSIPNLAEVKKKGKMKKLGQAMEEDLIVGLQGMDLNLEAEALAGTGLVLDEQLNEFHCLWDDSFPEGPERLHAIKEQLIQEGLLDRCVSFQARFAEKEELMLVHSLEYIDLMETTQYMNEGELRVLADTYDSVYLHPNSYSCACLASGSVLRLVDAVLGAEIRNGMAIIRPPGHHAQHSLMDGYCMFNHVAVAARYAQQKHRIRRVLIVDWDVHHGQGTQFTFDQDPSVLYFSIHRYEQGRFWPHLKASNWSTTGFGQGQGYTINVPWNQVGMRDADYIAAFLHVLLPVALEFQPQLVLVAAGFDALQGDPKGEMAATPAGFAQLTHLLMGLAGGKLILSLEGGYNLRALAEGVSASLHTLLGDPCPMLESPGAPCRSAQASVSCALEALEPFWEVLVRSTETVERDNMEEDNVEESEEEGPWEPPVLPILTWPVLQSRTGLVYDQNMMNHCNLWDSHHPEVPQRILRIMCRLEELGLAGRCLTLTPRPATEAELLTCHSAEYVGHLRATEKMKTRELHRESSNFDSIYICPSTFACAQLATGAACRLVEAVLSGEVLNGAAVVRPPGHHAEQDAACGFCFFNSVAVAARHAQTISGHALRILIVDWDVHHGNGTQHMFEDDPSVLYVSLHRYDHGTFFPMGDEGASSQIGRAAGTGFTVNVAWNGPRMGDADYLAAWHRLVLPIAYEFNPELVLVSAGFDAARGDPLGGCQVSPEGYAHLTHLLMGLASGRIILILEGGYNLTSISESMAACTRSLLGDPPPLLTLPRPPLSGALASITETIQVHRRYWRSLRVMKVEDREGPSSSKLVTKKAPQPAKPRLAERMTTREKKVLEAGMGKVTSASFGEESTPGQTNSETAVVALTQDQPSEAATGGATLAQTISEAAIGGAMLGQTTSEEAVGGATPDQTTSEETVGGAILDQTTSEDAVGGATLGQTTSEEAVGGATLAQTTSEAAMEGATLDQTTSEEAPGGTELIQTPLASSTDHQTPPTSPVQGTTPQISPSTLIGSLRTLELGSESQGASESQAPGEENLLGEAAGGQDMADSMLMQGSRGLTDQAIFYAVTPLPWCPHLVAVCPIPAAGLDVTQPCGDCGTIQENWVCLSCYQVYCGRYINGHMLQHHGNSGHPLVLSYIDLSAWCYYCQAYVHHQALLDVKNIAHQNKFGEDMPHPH
- method: Enzymatic screening on recombinant human HDAC6
- Format: biochemical
- measurement setup: Table 2; read-out: HDAC6 IC50
- Experimental: Enzymatic activity on recombinant human HDAC6 and HDAC3 was evaluated (Table 2) for each synthesized compound. After a period of incubation at 30° C. (incubation times vary for different isoforms and are shown in table 1) 25 μL of solution containing the substrate were added. […]
pIC50: −log10 of the molar value.
observation type: pIC50

1. Cc1ccc(-c2nnn(Cc3ccc(C(=O)NO)cc3)n2)s1
2. Cn1c(Sc2c(F)cc(C(=O)NO)cc2F)nnc1-c1cnc2ccccn12
I'm curious, which of these has a smaller pIC50 number: 1 or 2 ? // respond with label for picked entry 2

1. O=C(NO)c1ccc(Cn2nnc(-c3ccc(S(F)(F)(F)(F)F)cc3)n2)cc1
2. O=C(NO)c1cc(F)c(Cn2nnnc2Cc2ccccn2)c(F)c1.O=C(O)C(F)(F)F
For 1 and 2 , which recorded pIC50 is lower? Please indicate the selected item by its label. 2
(2: 7.03, 1: 7.60)

I. O=C(NO)c1cc(F)c(Sc2nnc(-c3cnccn3)n2Cc2ccco2)c(F)c1
II. Cc1ccsc1-c1nnn(Cc2ccc(C(=O)NO)cc2)n1
III. O=C(O)c1ccc(Cc2nnn(Cc3c(F)cc(C(=O)NO)cc3F)n2)cc1
Provide the items ranked by increasing pIC50. // rank by listing labels in the order requested III, I, II
(III: 6.94, I: 7.74, II: 8.52)
